- TARGET OR SYSTEM: CSF1R (c-fms) (Homo sapiens, UniProt P07333)
- MEASUREMENT DESCRIPTION: HotSpot radioisotope filter-binding kinase assay
- Type: biochemical
- RUN CONDITIONS: IC50 (class), Pacritinib scale
PARAMETER: IC50

What does the record list as IC50 for C1=C/COCc2cc(ccc2OCCN2CCCC2)Nc2nccc(n2)-c2cccc(c2)COC/1 ?
25 to 50 nM

----------
- TARGET OR SYSTEM: TYK2 (Homo sapiens)
- MEASUREMENT DESCRIPTION: HotSpot radioisotope filter-binding kinase assay
- Assay type: biochemical
- RUN CONDITIONS: IC50, recombinant kinase, 10 μM ATP
PARAMETER: pIC50
When answering, recall that pIC50 equals minus log10 of the concentration in mol/L, and write that number alone.

What does the record list as pIC50 for C1=C/COCc2cc(ccc2OCCN2CCCC2)Nc2nccc(n2)-c2cccc(c2)COC/1 ?
7.57

----------
- TARGET OR SYSTEM: ROS1 (Homo sapiens, UniProt P08922)
- Sequence (P08922 28-2347): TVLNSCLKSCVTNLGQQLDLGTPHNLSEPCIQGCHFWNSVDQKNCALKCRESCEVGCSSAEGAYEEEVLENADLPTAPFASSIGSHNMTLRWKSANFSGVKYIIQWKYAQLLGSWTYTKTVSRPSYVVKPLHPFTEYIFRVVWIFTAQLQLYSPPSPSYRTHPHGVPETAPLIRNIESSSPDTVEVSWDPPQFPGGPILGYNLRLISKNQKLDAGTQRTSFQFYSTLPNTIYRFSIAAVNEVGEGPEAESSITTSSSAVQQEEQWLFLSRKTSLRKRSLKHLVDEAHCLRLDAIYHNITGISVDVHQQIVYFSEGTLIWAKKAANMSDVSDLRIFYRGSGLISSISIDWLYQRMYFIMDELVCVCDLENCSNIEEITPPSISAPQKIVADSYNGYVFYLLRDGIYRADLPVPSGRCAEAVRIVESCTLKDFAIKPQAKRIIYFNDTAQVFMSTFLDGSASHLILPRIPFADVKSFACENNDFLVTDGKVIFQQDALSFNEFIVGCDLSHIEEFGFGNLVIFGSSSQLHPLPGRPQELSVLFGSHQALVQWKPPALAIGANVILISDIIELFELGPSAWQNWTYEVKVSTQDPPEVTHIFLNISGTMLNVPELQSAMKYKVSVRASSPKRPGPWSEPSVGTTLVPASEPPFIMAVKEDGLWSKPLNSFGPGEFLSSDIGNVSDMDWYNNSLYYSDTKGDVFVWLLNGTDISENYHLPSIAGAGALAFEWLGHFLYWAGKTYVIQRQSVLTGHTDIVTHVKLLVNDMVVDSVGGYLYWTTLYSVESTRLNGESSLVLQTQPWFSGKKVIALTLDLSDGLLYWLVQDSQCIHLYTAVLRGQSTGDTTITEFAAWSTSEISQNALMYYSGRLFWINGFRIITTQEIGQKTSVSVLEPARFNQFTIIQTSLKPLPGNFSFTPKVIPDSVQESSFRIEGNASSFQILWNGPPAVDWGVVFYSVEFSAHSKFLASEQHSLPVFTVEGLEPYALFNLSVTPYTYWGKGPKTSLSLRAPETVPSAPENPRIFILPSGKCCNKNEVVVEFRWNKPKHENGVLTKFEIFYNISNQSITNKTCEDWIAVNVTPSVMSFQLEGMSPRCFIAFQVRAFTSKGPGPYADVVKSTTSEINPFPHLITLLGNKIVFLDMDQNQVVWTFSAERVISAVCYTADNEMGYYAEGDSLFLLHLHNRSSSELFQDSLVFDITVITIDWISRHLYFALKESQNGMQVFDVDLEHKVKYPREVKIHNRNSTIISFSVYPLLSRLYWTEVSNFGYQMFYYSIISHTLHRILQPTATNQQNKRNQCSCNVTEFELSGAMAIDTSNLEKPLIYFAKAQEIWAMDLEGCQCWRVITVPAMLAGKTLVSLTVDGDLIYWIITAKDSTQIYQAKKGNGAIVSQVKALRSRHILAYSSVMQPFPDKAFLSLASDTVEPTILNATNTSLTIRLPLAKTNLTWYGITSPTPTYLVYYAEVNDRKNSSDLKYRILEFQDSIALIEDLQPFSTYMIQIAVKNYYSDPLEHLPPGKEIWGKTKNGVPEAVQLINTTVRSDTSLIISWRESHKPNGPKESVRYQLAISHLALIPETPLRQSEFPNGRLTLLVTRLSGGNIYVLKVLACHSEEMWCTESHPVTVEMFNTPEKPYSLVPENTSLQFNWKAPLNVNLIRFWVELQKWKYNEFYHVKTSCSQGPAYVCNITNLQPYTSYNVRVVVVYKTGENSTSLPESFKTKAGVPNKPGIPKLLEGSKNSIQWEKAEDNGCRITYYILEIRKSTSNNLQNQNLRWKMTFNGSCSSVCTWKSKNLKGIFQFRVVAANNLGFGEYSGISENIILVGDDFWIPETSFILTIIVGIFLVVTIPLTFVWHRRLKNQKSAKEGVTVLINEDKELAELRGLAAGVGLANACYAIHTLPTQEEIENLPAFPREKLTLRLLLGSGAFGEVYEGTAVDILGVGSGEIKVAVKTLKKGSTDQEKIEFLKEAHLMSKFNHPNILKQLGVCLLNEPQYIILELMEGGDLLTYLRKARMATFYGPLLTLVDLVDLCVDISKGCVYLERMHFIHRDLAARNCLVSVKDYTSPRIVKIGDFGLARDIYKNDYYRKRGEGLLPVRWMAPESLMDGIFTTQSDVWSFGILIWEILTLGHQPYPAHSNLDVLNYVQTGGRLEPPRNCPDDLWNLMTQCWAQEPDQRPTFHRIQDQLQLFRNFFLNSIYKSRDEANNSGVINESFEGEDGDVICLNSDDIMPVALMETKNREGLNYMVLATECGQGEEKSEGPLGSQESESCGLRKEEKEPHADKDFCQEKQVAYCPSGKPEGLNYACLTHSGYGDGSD
- MEASUREMENT DESCRIPTION: HotSpot radioisotope filter-binding kinase assay
- Type: biochemical
- RUN CONDITIONS: IC50 (class), Pacritinib scale
pIC50: −log10 of the molar value.
PARAMETER: pIC50

What does the record list as pIC50 for C1=C/COCc2cc(ccc2OCCN2CCCC2)Nc2nccc(n2)-c2cccc(c2)COC/1 ?
> 7.60

----------
- TARGET OR SYSTEM: HIPK4 (Homo sapiens)
- Sequence (Q8NE63 1-616): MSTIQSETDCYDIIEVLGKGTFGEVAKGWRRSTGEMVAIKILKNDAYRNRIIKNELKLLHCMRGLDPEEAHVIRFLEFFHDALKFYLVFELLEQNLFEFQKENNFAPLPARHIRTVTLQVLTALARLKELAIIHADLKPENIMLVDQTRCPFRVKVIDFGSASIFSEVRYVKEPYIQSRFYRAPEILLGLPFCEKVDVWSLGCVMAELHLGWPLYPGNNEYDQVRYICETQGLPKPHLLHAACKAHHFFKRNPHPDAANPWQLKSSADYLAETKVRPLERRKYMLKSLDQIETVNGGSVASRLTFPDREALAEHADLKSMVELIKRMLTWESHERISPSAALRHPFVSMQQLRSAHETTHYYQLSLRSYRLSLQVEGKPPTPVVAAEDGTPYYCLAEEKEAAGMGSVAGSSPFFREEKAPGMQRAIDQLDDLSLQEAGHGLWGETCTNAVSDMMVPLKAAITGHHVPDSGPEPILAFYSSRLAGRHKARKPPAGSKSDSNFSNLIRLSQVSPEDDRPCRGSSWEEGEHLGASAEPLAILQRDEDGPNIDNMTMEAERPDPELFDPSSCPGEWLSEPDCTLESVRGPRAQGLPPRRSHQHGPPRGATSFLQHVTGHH
- MEASUREMENT DESCRIPTION: HotSpot radioisotope filter-binding kinase assay
- Format: biochemical
- RUN CONDITIONS: IC50, recombinant kinase, 10 μM ATP
PARAMETER: pIC50
When answering, recall that pIC50 equals minus log10 of the concentration in mol/L, and write that number alone.

What does the record list as pIC50 for C1=C/COCc2cc(ccc2OCCN2CCCC2)Nc2nccc(n2)-c2cccc(c2)COC/1 ?
7.84

----------
- TARGET OR SYSTEM: TNK1 (Homo sapiens, UniProt Q13470)
- Sequence (Q13470 1-666): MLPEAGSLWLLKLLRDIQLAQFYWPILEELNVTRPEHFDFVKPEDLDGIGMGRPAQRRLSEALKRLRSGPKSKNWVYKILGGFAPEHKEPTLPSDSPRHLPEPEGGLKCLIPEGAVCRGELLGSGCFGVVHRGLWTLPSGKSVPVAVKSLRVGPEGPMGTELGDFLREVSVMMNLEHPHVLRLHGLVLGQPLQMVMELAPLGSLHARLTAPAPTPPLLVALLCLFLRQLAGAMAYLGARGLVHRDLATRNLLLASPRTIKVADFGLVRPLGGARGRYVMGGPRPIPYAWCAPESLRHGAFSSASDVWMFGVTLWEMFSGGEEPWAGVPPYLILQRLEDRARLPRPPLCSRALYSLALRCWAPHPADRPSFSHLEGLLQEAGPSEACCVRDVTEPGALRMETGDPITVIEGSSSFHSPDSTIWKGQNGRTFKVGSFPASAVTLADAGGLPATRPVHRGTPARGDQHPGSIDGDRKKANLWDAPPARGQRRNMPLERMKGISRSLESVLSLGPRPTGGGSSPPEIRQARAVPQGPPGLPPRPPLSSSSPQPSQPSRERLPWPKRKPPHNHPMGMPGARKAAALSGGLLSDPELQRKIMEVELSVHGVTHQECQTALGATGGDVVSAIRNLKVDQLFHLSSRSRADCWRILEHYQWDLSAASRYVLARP
- MEASUREMENT DESCRIPTION: HotSpot radioisotope filter-binding kinase assay
- Format: biochemical
- RUN CONDITIONS: IC50, recombinant kinase, 10 μM ATP
PARAMETER: pIC50
When answering, recall that pIC50 equals minus log10 of the concentration in mol/L, and write that number alone.

What does the record list as pIC50 for C1=C/COCc2cc(ccc2OCCN2CCCC2)Nc2nccc(n2)-c2cccc(c2)COC/1 ?
7.82

----------
- TARGET OR SYSTEM: IRAK1 (Homo sapiens)
- MEASUREMENT DESCRIPTION: HotSpot radioisotope filter-binding kinase assay
- Type: biochemical
- RUN CONDITIONS: IC50 (class), Pacritinib scale
pIC50: −log10 of the molar value.
PARAMETER: pIC50

What does the record list as pIC50 for C1=C/COCc2cc(ccc2OCCN2CCCC2)Nc2nccc(n2)-c2cccc(c2)COC/1 ?
> 7.60

----------
- TARGET OR SYSTEM: TRKC (Homo sapiens)
- MEASUREMENT DESCRIPTION: HotSpot radioisotope filter-binding kinase assay
- Format: biochemical
- RUN CONDITIONS: IC50 (class), Pacritinib scale
pIC50: −log10 of the molar value.
PARAMETER: pIC50

What does the record list as pIC50 for C1=C/COCc2cc(ccc2OCCN2CCCC2)Nc2nccc(n2)-c2cccc(c2)COC/1 [Pacritinib] ?
> 7.60

----------
- TARGET OR SYSTEM: UniProt:P08922
- MEASUREMENT DESCRIPTION: HotSpot radioisotope filter-binding kinase assay
- Type: biochemical
- RUN CONDITIONS: IC50, recombinant kinase, 10 μM ATP
PARAMETER: IC50 (nM)
Numeric only. Scale: nM

What does the record list as IC50 for C1=C/COCc2cc(ccc2OCCN2CCCC2)Nc2nccc(n2)-c2cccc(c2)COC/1 ?
18.4

----------
- TARGET OR SYSTEM: TRKC (Homo sapiens, UniProt Q16288)
- Sequence (Q16288 32-839): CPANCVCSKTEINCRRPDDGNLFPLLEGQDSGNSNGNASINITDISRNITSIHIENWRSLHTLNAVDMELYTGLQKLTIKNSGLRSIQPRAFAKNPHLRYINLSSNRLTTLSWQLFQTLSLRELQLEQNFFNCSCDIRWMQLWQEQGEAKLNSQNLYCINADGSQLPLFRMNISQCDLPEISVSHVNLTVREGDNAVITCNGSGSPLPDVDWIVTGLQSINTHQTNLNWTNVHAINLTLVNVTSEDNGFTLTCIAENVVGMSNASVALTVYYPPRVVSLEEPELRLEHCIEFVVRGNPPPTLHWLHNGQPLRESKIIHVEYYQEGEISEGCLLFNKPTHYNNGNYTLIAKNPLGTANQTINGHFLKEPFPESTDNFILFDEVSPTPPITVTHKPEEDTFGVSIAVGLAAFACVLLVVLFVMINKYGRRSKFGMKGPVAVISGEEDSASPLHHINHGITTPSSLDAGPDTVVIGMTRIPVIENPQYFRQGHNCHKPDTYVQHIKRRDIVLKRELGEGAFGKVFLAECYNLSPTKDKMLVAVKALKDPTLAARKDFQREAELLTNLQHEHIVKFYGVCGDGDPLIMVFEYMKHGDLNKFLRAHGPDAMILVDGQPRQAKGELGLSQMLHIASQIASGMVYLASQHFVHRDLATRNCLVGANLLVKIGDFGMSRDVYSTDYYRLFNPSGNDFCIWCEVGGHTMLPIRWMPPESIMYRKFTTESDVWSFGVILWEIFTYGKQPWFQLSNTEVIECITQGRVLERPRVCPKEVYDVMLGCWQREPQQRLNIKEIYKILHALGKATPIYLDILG
- MEASUREMENT DESCRIPTION: HotSpot radioisotope filter-binding kinase assay
- Type: biochemical
- RUN CONDITIONS: IC50, recombinant kinase, 10 μM ATP
PARAMETER: IC50 (nM)
Numeric only. Scale: nM

Give recorded IC50 with TRKC (Homo sapiens, UniProt Q16288) for the following compound: C1=C/COCc2cc(ccc2OCCN2CCCC2)Nc2nccc(n2)-c2cccc(c2)COC/1
18.4

----------
- TARGET OR SYSTEM: c-src (Homo sapiens)
- Sequence (P12931 whole entry): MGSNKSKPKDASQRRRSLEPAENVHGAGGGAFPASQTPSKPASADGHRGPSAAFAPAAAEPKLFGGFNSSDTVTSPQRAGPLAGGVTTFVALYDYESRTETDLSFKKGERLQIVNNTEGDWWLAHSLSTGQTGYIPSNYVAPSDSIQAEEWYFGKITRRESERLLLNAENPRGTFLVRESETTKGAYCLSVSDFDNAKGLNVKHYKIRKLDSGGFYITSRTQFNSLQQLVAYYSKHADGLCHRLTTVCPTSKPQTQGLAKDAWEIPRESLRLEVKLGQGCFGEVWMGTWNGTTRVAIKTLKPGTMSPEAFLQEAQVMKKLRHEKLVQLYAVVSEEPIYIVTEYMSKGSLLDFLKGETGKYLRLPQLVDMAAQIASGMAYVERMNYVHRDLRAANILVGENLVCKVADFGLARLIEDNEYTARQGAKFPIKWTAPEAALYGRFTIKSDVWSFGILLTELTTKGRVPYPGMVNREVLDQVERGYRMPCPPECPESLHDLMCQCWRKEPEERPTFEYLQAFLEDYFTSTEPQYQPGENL
- MEASUREMENT DESCRIPTION: HotSpot radioisotope filter-binding kinase assay
- Format: biochemical
- RUN CONDITIONS: IC50, recombinant kinase, 10 μM ATP
PARAMETER: pIC50
When answering, recall that pIC50 equals minus log10 of the concentration in mol/L, and write that number alone.

What does the record list as pIC50 for C1=C/COCc2cc(ccc2OCCN2CCCC2)Nc2nccc(n2)-c2cccc(c2)COC/1 ?
7.33

----------
- TARGET OR SYSTEM: c-kit (Homo sapiens, UniProt P10721)
- Sequence (P10721 26-976): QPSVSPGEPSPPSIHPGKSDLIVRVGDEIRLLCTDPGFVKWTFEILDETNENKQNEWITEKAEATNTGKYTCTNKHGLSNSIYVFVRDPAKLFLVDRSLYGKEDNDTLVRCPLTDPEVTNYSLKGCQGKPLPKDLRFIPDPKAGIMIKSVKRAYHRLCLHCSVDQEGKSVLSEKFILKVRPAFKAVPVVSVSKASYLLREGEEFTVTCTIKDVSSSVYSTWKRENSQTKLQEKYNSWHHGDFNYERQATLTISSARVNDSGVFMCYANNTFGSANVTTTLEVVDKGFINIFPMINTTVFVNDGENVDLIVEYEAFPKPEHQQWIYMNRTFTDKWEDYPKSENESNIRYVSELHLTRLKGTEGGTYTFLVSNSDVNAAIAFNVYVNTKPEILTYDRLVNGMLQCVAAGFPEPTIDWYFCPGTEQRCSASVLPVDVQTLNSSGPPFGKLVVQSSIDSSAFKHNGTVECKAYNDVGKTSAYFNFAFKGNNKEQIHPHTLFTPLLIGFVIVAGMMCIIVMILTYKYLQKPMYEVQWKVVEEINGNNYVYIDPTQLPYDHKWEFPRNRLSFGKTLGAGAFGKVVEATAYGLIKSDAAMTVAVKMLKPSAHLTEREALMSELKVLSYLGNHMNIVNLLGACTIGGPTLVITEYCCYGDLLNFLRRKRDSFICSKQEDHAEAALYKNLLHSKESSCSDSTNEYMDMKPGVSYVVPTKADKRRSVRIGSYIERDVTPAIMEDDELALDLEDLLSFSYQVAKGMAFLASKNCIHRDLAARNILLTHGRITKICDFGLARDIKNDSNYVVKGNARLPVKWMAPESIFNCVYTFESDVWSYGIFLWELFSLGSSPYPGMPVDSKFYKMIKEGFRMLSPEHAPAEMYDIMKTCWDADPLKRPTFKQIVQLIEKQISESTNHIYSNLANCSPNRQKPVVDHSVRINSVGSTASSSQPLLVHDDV
- MEASUREMENT DESCRIPTION: HotSpot radioisotope filter-binding kinase assay
- Assay type: biochemical
- RUN CONDITIONS: IC50, recombinant kinase, 10 μM ATP
PARAMETER: pIC50
When answering, recall that pIC50 equals minus log10 of the concentration in mol/L, and write that number alone.

What does the record list as pIC50 for C1=C/COCc2cc(ccc2OCCN2CCCC2)Nc2nccc(n2)-c2cccc(c2)COC/1 ?
7.36
